System: COLO 205 colon
Test: NCI-60 one-dose screen, 48 h (100 = growth as untreated, 0 = no growth, -100 = all killed)
Settings: 10 µM unless noted
About 83,000 compounds went through this panel and 20% of them were active in at least one assay; those are over-represented in the sample as a whole.
QUANTITY_NAME: growth (%)
Write it as a number; the unit % goes unstated.

• O=[N+]([O-])c1ccc(N2CCN=N2)cc1 = 92.7
• CCOC(=O)c1ccc(C(=N)N)cc1 = 114
• Nc1c(Cl)cc2c(c1Br)C(=O)c1ccccc1C2=O = 104
• O=[N+]([O-])c1cccc(N=Cc2ccccc2)c1 = 118
• CC(=O)Oc1cc(C)c(OC(C)=O)c(C)c1C = 121
• CC(O)CCNC(c1ccccc1)C(O)c1ccccc1 (stereo not drawn) = 117
• COC(=O)C(Cc1cn(C(C)=O)c2ccccc12)P(=O)(OC)OC (stereo not drawn) = 105
• OCc1ccccc1F = 92.3
• CCOC(C)=N = 122
• CCCCNC(=O)c1ccccc1C = 98.3

INPUT: Given `Cc1cc2ccccc2c2cc3ccccc3cc12` , state its recorded growth.
OUTPUT: 79.4

INPUT: Which value of growth has been reported for `CCOP(=O)(OCC)/C(C#N)=C/c1c(C)[nH]c2ccccc12` in the records?
OUTPUT: 107

INPUT: Which growth is reported for this molecule? C#CCOC(=O)C(N)CS (stereo not drawn)
OUTPUT: 106

INPUT: For `Cc1cc(NC(=O)NC(=O)c2ccccc2N(C)C)ccc1Oc1ncc(Br)cn1` , what is its reported growth?
OUTPUT: 14.2

INPUT: What does the record list as growth for `CC1(C)CC(=O)NC1=O` ?
OUTPUT: 113

INPUT: Consider the molecule shown here: CC1CC(O)CC(C)(C)C1.CC1CC(O)CC(C)(C)C1.CC1CC(O)CC(C)(C)C1.CC1CC(O)CC(C)(C)C1.[Ti] (stereo not drawn) What is its recorded growth?
OUTPUT: 108

INPUT: Consider the molecule CCN(CC)C(CC(=O)c1ccccc1)C(=O)c1ccccc1 (stereo not drawn) and give its measured growth.
OUTPUT: 77.8

INPUT: I have this molecule here, Cc1ccc(NC(=S)N/C=C(\c2ccccc2)S(=O)Cc2ccccc2)c(C)c1 (stereo not drawn) , and I need its recorded growth.
OUTPUT: 104

INPUT: What value of growth has been reported for the following molecule? `CCCC(=O)Oc1ccc(CC)cc1`
OUTPUT: 104

INPUT: Field request: growth | item: `c1ccc2c[n+](Cc3ccc4ccccc4n3)ccc2c1`
OUTPUT: 46.5

INPUT: Consider the molecule `COc1ccc(S(=O)(=O)c2ccc(F)cc2)cc1` and give its measured growth.
OUTPUT: 113

---

Items are presented alongside their recorded growth.
Tested on: DU-145 prostate
Assay: NCI-60 one-dose screen, 48 h (100 = growth as untreated, 0 = no growth, -100 = all killed)
Conditions: 10 µM unless noted
The panel holds about 83,000 compounds, 20% with a hit somewhere; the sample as a whole holds those more often.
Express the result in % but write the number alone.

# count of solved cases: 3
* O=c1[nH]c(=O)c2[nH]c(=O)[nH]c2[nH]1 | 107
* CC(C)(C)OC(=O)NCCc1ccc(N)cc1 | 103
* O=C(O)C#Cc1ccc(Cl)cc1 | 109

INPUT: Returns the measured growth for the input compound. Input: `CN(C=O)c1ccccc1`
OUTPUT: 103

INPUT: Entry `CCN(CC)C(=S)SCCO` : reported growth = ?
OUTPUT: 107

INPUT: If you can, please state the reported growth value of `CN(C)C(=N)N=C(N)N` .
OUTPUT: 120

INPUT: Requested read-out: growth. Entry: `COc1cc(NCCCCCNC(C)C)c2ncccc2c1`
OUTPUT: 111

INPUT: # lookup: growth of `Cn1c(-c2ccccc2)cc(=O)cc1-c1ccccc1`
OUTPUT: 3.58

INPUT: Name the recorded growth for `CC(=O)Nc1cscc1NC(C)=O` .
OUTPUT: 98.4

INPUT: Please look up its growth: `NCCSSC/C=C\CSSCCN`
OUTPUT: 104

INPUT: What does the data say about its growth? Entry: `CCN(CC)Cc1cc2[nH]c3c4ccc(Cl)cc4ncc3c2cc1OC`
OUTPUT: 10.7

INPUT: What value of growth has been recorded for this entry: OC1CCCN(Cc2ccccc2)C1 (stereo not given)
OUTPUT: 121
